target: DRB1*0701 (Homo sapiens, UniProt P01903+P01911, A100R/A102G/A103Q/D57E/D86V/E43K/F76Y/K127E/L162R/M171V/P40G/Q125H/Q99D/R33Q/R42Y/R54Q/S133A/S66F/T210M/V115G/Y107V/Y59L/Y89S); experiment: HLA class II peptide-binding assay (competitive ELISA); conditions: immunopurified HLA, reference peptide IC50 5 nM, ratio ≤20 high affinity, 20–200 moderate affinity
Measurement kind: relative binding ratio (IC50 of the test peptide divided by IC50 of the reference peptide)

[
  {
    "Sequence input": "ALEDFEKAAGARGLST [pTL8, Tear lipocalin peptide p126–141]",
    "Meas value": "1 440"
  },
  {
    "Sequence input": "KPVRGVKLVGRDPKNNL [pTL7, Tear lipocalin peptide p108–124]",
    "Meas value": "> 1 874"
  },
  {
    "Sequence input": "GKWYLKAMTADQEVPE [pC1, Can f 1 peptide p15–30]",
    "Meas value": 75
  },
  {
    "Sequence input": "ALEDFREFSRAKGLNQ [pC8, Can f 1 peptide p125–140]",
    "Meas value": 71
  },
  {
    "Sequence input": "EILELAQSETCSPGGQ [pC9, Can f 1 peptide p141–156]",
    "Meas value": 230
  },
  {
    "Sequence input": "LEAKITMLTNGQCQNIT [pC3, Can f 1 peptide p48–64]",
    "Meas value": 103
  },
  {
    "Sequence input": "RQIRMAKLLGRDPEQSQ [pC7, Can f 1 peptide p107–123]",
    "Meas value": "> 1 874"
  },
  {
    "Sequence input": "GQRVVFIQPSPVRDHY [pC5, Can f 1 peptide p81–96]",
    "Meas value": 61
  },
  {
    "Sequence input": "MNLESVTPMTLTTLEGGNL [pTL2, Tear lipocalin peptide p31–49]",
    "Meas value": 55
  },
  {
    "Sequence input": "LEAKVTMLISGRCQEVK [pTL3, Tear lipocalin peptide p49–65]",
    "Meas value": 0.2
  }
]

====

tested on: DRB3; assay: HLA class II peptide-binding assay (competitive ELISA); design: species or system human; details: DRB3; competitive ELISA, immunopurified HLA; reference peptide IC50 60 nM; ratio ≤20 high affinity, 20–200 moderate affinity
Measurement kind: relative binding ratio (IC50 of the test peptide divided by IC50 of the reference peptide)

[
  {
    "Sequence input": "ESILIPRQSETCSPGSD [pTL9, Tear lipocalin peptide p142–158]",
    "Value qualifier": ">",
    "Meas value": 167
  },
  {
    "Sequence input": "HYIFYCEGELHGKPVR [pTL6, Tear lipocalin peptide p96–111]",
    "Value qualifier": ">",
    "Meas value": 167
  },
  {
    "Sequence input": "LEAKVTMLISGRCQEVK [pTL3, Tear lipocalin peptide p49–65]",
    "Value qualifier": "=",
    "Meas value": 8
  },
  {
    "Sequence input": "KPDSVTPMILKAQKGGNL [pC2, Can f 1 peptide p31–48]",
    "Value qualifier": "=",
    "Meas value": 1
  },
  {
    "Sequence input": "PGKYTAYEGQRVVFIQ [pC4, Can f 1 peptide p73–88]",
    "Value qualifier": "=",
    "Meas value": 61
  }
]
